assayDetails: In vitro stability in rat plasma (HPLC detection)
Format: in vitro ADME
runConditions: 37° C.
Where a name gives a salt, the structure may show the parent alone.
measureName: % Test Compound after 4 h [F(t = 24 h) × 100/F(t = 0 h)] (%)
Report the value in % with no unit label.

molecule	observed
COc1cc(S(C)(=O)=O)ccc1N(C(=O)OC(OC(=O)[C@@H](N)C(C)(C)C)C(C)C)c1nc2ccc(-c3ccc(NC(=O)[C@H](C)c4ccc(F)cc4)cc3)cn2n1.Cl (mixture of isomers) [Example 5.1]	19
COc1cc(S(C)(=O)=O)ccc1N(C(=O)OC(OC(=O)[C@@H](N)C(C)C)C(C)C)c1nc2ccc(-c3ccc(NC(=O)[C@H](C)c4ccc(F)cc4)cc3)cn2n1 (single isomer, unassigned) [Example 5.2, hydrochloride]	44
COc1cc(S(C)(=O)=O)ccc1N(C(=O)OCOC(=O)C(C)(C)CN)c1nc2ccc(-c3ccc(NC(=O)[C@H](C)c4ccc(F)cc4)cc3)cn2n1.O=C(O)C(F)(F)F [Example 1.8]	3
CNCCCC(=O)N(c1nc2ccc(-c3ccc(NC(=O)[C@H](C)c4ccc(F)cc4)cc3)cn2n1)c1ccc(S(C)(=O)=O)cc1OC.O=C(O)C(F)(F)F [Example 4.1]	12

Continue with the next molecule.
For this molecule ( COc1cc(S(C)(=O)=O)ccc1N(C(=O)OCOC(=O)[C@@H](N)C(C)(C)C)c1nc2ccc(-c3ccc(NC(=O)[C@H](C)c4ccc(F)cc4)cc3)cn2n1.Cl [Example 1.5] ), measured % Test Compound after 4 h [F(t = 24 h) × 100/F(t = 0 h)] is 0.0

Origin of measurements: patent US9586958B2
